- Test system: GluK2 receptor
- Construct: gene GRIK2
- Test Name: aequorin luminescence Ca2+ influx assay in HEK293 cells
- Format: cell-based
- Measurement Conditions: 275 μM glutamate as agonist; Ringer buffer + 100 mM CaCl2; non-competitive
pIC50: −log10 of the molar value.

Compound	Assay Target	pIC50
COc1ccc2c(c1)c(C)c(-c1cccs1)n2C [compound 3]	GluK2 receptor	4.92
